B1: CPEB3 Ribozyme (parent)
chain: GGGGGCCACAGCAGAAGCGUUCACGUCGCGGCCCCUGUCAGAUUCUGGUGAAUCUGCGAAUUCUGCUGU

Variants of: B1
ASSAY_NAME: self-cleavage, relative activity (ratio to wild type); higher = more cleavage; co-transcriptional
Binary call on self-cleavage: label 1 from 0.3 upward, label 0 beneath that.

GGGGGACACAGCAGAAGCGUUCACGUCGCGGCCCGUGUCAGAUUCUGGUGAAUCUGCGAAUUCUGCUGU [C6A C35G] : label 0
GCGGGCCACAGCAGAAGCGUUCACAUCGCGGCCCCUGUCAGAUUCUGGUGAAUCUGCGAAUUCUGCUGU [G2C G25A] : label 0
GGGGGCCACAGUAGAAGCGUUCACGUCGCGGCCCCUGUCAGAUUCUGGUGAAUUUGCGAAUUCUGCUGU [C12U C54U] : label 1

query: Is it the case that GGCGGCCACAGCAGAAGCGUUCACGUCGCGGCCCCUGUCAGAUUCUGGUGAAUCUGCGAUUUCUGCUGU [G3C A60U] has self-cleavage reaching or exceeding 0.3?
result: label 0

query: Check this variant for self-cleavage at or above 0.3: GGGGGUCACAGCAGAAGCGUUCACGUCGCGGCCCCUGUCAGAUUCUGGUGAAUCUGCGAAUUCUACUGU [C6U G65A]
result: label 1
